Test system: RPMI-8226 leukemia
Test: NCI-60 one-dose screen, 48 h
Conditions: 10 µM unless noted
This is part of a sample that, as a whole, favours compounds with a hit. Of some 83,000 tested, about 20% had one in any assay. The source made the active and inactive calls. The calls were made as follows: active = growth percent below 10; inactive = the rest.
Outcome codes: 1 for active, 0 for inactive

compound | target.or.test.system | category.label
COc1ccc(/C=N/N=C(/c2ccccc2)c2ccc3nc(-c4ccc(Cl)cc4)[nH]c3c2)cc1 | RPMI-8226 leukemia | 0
CN1CCN(c2ccc(Nc3nc(NCCCNS(=O)(=O)c4cccc(F)c4)c4sccc4n3)cc2)CC1 | RPMI-8226 leukemia | 1
CC(=O)c1c([Si](C)(C)C)c2cc(C#N)ccn2c1C(=O)c1ccc(Br)cc1 | RPMI-8226 leukemia | 0
CS(=O)(=O)c1ccc(/C(=N/N=C(N)N)c2ccc(Cl)cc2)cc1 | RPMI-8226 leukemia | 0
COc1cc(C(=O)c2cc(C(C)=O)c3ccc(C)cn23)cc(OC)c1OC | RPMI-8226 leukemia | 0
O=C(/C=C/c1ccc(Cl)c(Cl)c1)Nc1ncc(Cc2ccc(Cl)c(Cl)c2)s1 | RPMI-8226 leukemia | 0
COC(=O)CNC(=O)c1cccc(-c2cc(=O)c3c(OC)c(OC)c(OC)cc3o2)c1 | RPMI-8226 leukemia | 0
CCCCN1C(=O)/C(=c2\sc3n(c2=O)C2C(NN=3)N(CC)C(=O)N2CC)c2cccc(C)c21 (stereo not drawn) | RPMI-8226 leukemia | 0
NC1CC2(CCN(c3cnc(C(=O)Nc4cc(F)cc5cccnc45)cn3)CC2)C1 | RPMI-8226 leukemia | 0
Cc1ccc(/C(N)=N/C(N)=N/c2nc3ccccc3s2)cc1 | RPMI-8226 leukemia | 0
O=C(Nc1ccc(N=Cc2c(O)[nH]c3ccccc23)cc1)Nc1ccc(S(=O)(=O)Nc2ncccn2)cc1 | RPMI-8226 leukemia | 0
C[C@]12CC[C@H]3[C@@H](CC=C4C[C@@H](O)CC[C@@]43C)[C@@H]1CC[C@@H]2[C@](C)(O)CCc1cccnc1 | RPMI-8226 leukemia | 0
O=c1nc(Nc2ccc([N+](=O)[O-])cc2O)sc2ccccc12 | RPMI-8226 leukemia | 1
CC1=Cc2ccccc2OC12C=Cc1ccccc1O2 (stereo not drawn) | RPMI-8226 leukemia | 0
NS(=O)(=O)c1nnc(/N=C/c2c(O)[nH]c3ccccc23)s1 | RPMI-8226 leukemia | 0
COC(=O)CCSC1=C(C)C(=O)c2ccccc2C1=O | RPMI-8226 leukemia | 0
CCc1nnc(NC(=O)c2cc(-c3ccc(Cl)cc3Cl)oc2C)s1 | RPMI-8226 leukemia | 0
COc1ccc2c(c1)c(/C=N/Nc1ccnc3cc(Cl)ccc13)cn2C | RPMI-8226 leukemia | 1
CC[C@]12C=CCN3CC[C@]4(C(=C(C(=O)OC)C1)Nc1cc5c(cc14)[C@@H]1[C@H](O5)[C@@H](O)[C@@]4(CC)CC(C(=O)OC)=C5Nc6cc(O)ccc6[C@@]56CCN1C46)C32 (stereo partly drawn) | RPMI-8226 leukemia | 1
CCCCc1nc2c(N)nc3ccccc3c2n1Cc1ccc(OC)cc1 | RPMI-8226 leukemia | 0
NC(=O)n1c(=O)n(-c2cccc(C(F)(F)F)c2)c(=O)c2cc(-c3ccc(F)cc3F)ccc21 | RPMI-8226 leukemia | 1
COc1ccc2c(c1)c(-c1nc(N)nnc1-c1c[nH]c3ccccc13)cn2C | RPMI-8226 leukemia | 0
CC(C)[C@H]1c2[nH]c3ccccc3c2C[C@H]2C(=O)N(CCCCCCC(=O)NO)CC(=O)N12 | RPMI-8226 leukemia | 0
COc1ccc(-c2c(C(N)=O)c(N)n(Cc3nc4ccccc4[nH]3)c(=O)c2C#N)c(OC)c1 | RPMI-8226 leukemia | 0
Cc1csc(/N=C(N)/N=C(\N)c2cccc(Br)c2)n1 | RPMI-8226 leukemia | 0
Cc1cc(NS(=O)(=O)c2ccc(NC(=O)CSc3nc4ccccc4c(=O)n3-c3ccccc3)cc2)no1 | RPMI-8226 leukemia | 0
COC(=O)N1CCN(CCNCc2ccc(NC(=O)c3ccc(C)c(C#Cc4cnc5cccnn45)c3)cc2C(F)(F)F)CC1 | RPMI-8226 leukemia | 1
CN1CCN(c2ccc(Nc3nc(NCCCNS(=O)(=O)c4cccc5ccccc45)c4sccc4n3)cc2)CC1 | RPMI-8226 leukemia | 1
CCN(CC)CCOc1ccc(C(=C(c2ccccc2)C2CCCC2)c2ccc(OCCN(CC)CC)cc2)cc1 | RPMI-8226 leukemia | 1
N#Cc1c(-c2cccs2)c(C#N)c(=O)n(Cc2nc3ccccc3[nH]2)c1N | RPMI-8226 leukemia | 0
C#Cc1nc(C(=O)NCCCCCCC(=O)NO)cs1 | RPMI-8226 leukemia | 1
O=C(CCCCCCNC(=O)C(O)(O)C(F)(F)F)Nc1ncc(-c2ccc(Br)cc2)s1 | RPMI-8226 leukemia | 0
O=C(CCCCCCN1CC(=O)N2[C@@H](c3ccccc3Br)c3[nH]c4ccccc4c3C[C@H]2C1=O)NO | RPMI-8226 leukemia | 0
NC(=O)c1ncn2c(=O)n(CCF)nnc12 | RPMI-8226 leukemia | 0
O=S(=O)(NCCCNc1nccc(-c2[nH]c(-c3ccccc3)nc2-c2ccc(F)c(O)c2)n1)c1cccc(F)c1 | RPMI-8226 leukemia | 0
CN1CCN(c2ccc(Nc3nc(NCCCNS(=O)(=O)c4ccc(Cl)cc4)c4sccc4n3)cc2)CC1 | RPMI-8226 leukemia | 1
NS(=O)(=O)c1ccc(CCn2c(-c3ccc(C(=O)O)cc3)nc(-c3ccccc3)c2-c2ccccc2)cc1 | RPMI-8226 leukemia | 0
O=C1/C(=C/C=C/c2ccco2)SC(=S)N1Cc1ccccc1 | RPMI-8226 leukemia | 0
